- ASSAY INFO: Oral bioavailability in Sprague-Dawley rat at 25 mg/kg by LC-MS/MS analysis
- Format: ADME, organism-based
- CONDITION LABEL: in vivo
OBSERVATION TYPE: bioavailability (%)
// units = %; emit number, no label

Recorded result, COc1cc2c(cc1OC)[C@H](CCc1c[nH]c3cc(C)ccc13)N(C=O)CC2 , bioavailability: 68.3

* * *

- ASSAY INFO: AUC (0 to infinity) in Sprague-Dawley rat at 25 mg/kg, po by LC-MS/MS analysis
- Assay type: ADME, organism-based
- Parameters: dose 25 mg/kg, route oral, time infinity
- CONDITION LABEL: in vivo
OBSERVATION TYPE: AUC(0-inf) (µg·h/mL)
// units = µg·h/mL; emit number, no label

Recorded result, COc1cc2c(cc1OC)[C@H](CCc1c[nH]c3cc(C)ccc13)N(C=O)CC2 , AUC(0-inf): 8.46

* * *

- ASSAY INFO: Permeability across apical to basal side in human Caco2 cells assessed as drug recovery measured after 95 mins by LC-MS/MS analysis
- Assay type: ADME, cell-based
- CONDITION LABEL: Caco-2, read-out: Drug recovery
Catalogue of compounds with associated recovery at 95 min
// units = %; emit number, no label

1) CCOc1cc([C@@H](CS(C)(=O)=O)N2C(=O)c3cccc(NC(C)=O)c3C2=O)ccc1OC | 96.7

Here is another compound to look at.
Recorded result, COc1cc2c(cc1OC)[C@H](CCc1c[nH]c3cc(C)ccc13)N(C=O)CC2 , recovery at 95 min: 92.3

* * *

- ASSAY INFO: Apparent permeability across basal to apical side in human Caco2 cells measured after 95 mins by LC-MS/MS analysis
- Format: ADME, cell-based
- CONDITION LABEL: Caco-2
OBSERVATION TYPE: Papp B→A at 95 min (×10⁻⁶ cm/s)
// units = ×10⁻⁶ cm/s; emit number, no label

Recorded result, COc1cc2c(cc1OC)[C@H](CCc1c[nH]c3cc(C)ccc13)N(C=O)CC2 , Papp B→A at 95 min: 19.9

Recorded result, CCOc1cc([C@@H](CS(C)(=O)=O)N2C(=O)c3cccc(NC(C)=O)c3C2=O)ccc1OC , Papp B→A at 95 min: 29

* * *

- ASSAY INFO: Permeability across basal to apical side in human Caco2 cells assessed as drug recovery measured after 95 mins by LC-MS/MS analysis
- Assay type: ADME, cell-based
- CONDITION LABEL: Caco-2, read-out: Drug recovery
OBSERVATION TYPE: recovery at 95 min (%)
// units = %; emit number, no label

1) COc1cc2c(cc1OC)[C@H](CCc1c[nH]c3cc(C)ccc13)N(C=O)CC2 | 96.8

Here is another compound to look at.
Recorded result, CCOc1cc([C@@H](CS(C)(=O)=O)N2C(=O)c3cccc(NC(C)=O)c3C2=O)ccc1OC , recovery at 95 min: 92.1

* * *

- ASSAY INFO: AUC (0 to infinity) in Sprague-Dawley rat at 10 mg/kg, iv by LC-MS/MS analysis
- Format: ADME, organism-based
- Parameters: dose 10 mg/kg, route intravenous, time infinity
- CONDITION LABEL: in vivo
OBSERVATION TYPE: AUC(0-inf) (ng·h/mL)
// units = ng·h/mL; emit number, no label

Recorded result, COc1cc2c(cc1OC)[C@H](CCc1c[nH]c3cc(C)ccc13)N(C=O)CC2 , AUC(0-inf): 6280
